Test system: panel of 55 breast cancer cell lines
method.summary: Cell growth inhibition assay (Cell Titer Glo, 72 h, 9 doses; GI50, TGI, LC50)
Type: cell-based, human
test.settings: Homo sapiens, HCC1500, cell line HCC1500; read-out: GI50 (converted)
result.type: GI50
Give the value; after it, write the unit.

Would you kindly share the measured GI50 for CCNCCCNC/C=C\CNCCCNCC [CGC-11047] ?
63.1 µM

Would you kindly share the measured GI50 for CO[C@H]1C[C@@H]2CC[C@@H](C)[C@@](O)(O2)C(=O)C(=O)N2CCCC[C@H]2C(=O)O[C@H]([C@H](C)C[C@@H]2CC[C@@H](O)[C@H](OC)C2)CC(=O)[C@H](C)/C=C(\C)[C@@H](O)[C@@H](OC)C(=O)[C@H](C)C[C@H](C)/C=C/C=C/C=C/1C [Rapamycin] ?
93.3 µM

Would you kindly share the measured GI50 for CC(C)C[C@H](NC(=O)[C@H](Cc1ccccc1)NC(=O)c1cnccn1)B(O)O [Bortezomib] ?
0.0123 µM

Would you kindly share the measured GI50 for CN(Cc1cnc2nc(N)nc(N)c2n1)c1ccc(C(=O)N[C@@H](CCC(=O)O)C(=O)O)cc1 [Methotrexate] ?
0.0309 µM

The reported measurements were obtained from patent US10770169B2.
